Assay details: Sensory evaluation of coolant mixtures by a panel of 5 trained testers (cooling effect and flavor profile) in a standard chewy candy preparation
Assay type: in vivo
Test parameters: panel score (5)=very true to (0)=largely not true; mean values of 5 trained testers; unsweetened, non-aromatized standard chewy candy preparation
Endpoint name: Cooling effect occurs rapidly

Compound: CC(C)CC=O
Result value: 2.0

Compound: CC(C)C(=O)O
Result value: 2.2

Compound: CC(C)C=O
Result value: 2.1

Cooling effect occurs rapidly in this record for CC(C)CC(=O)O : 2.5

Measured values drawn from patent US10933039B2 for this set.
